Tested on: H3K9me2 in HCT116 cells
Experiment: HCT116 H3K9me2 in-cell western assay
Assay type: cell-based
Details: Homo sapiens, HCT-116, 72 h, HCT116 cells, 72 hours incubation; read-out: H3K9me2 ICW IC50
pIC50: −log10 of the molar value.
# pIC50 values compiled below

Query block: Notebook entry, H3K9me2 in HCT116 cells assay: pIC50 of CNc1cc(C)nc(Nc2cc3c(c(C4=C[C@H]5CNC[C@H]5C4)c2)OCCO3)n1 (racemic) [Compound 134] = ?
Result block: 6.30 to 7.00

---

# IC50 values compiled below
Biological target: human EHMT2 913-1193 (Homo sapiens)
Sequence (Q96KQ7 913-1193): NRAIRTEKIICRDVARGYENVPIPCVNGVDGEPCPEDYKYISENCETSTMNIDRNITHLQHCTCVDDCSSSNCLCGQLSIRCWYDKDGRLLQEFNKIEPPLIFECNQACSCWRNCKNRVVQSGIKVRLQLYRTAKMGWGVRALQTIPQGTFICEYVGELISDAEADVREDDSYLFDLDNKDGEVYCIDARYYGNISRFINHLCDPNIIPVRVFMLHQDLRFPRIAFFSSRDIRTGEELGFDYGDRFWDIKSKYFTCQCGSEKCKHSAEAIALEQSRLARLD
Assay: EHMT2 enzyme assay on histone peptide substrate (3H-SAM SPA)
Conditions: EHMT2 IC50, recombinant human EHMT2 913-1193, histone peptide substrate

Query block: Return reported IC50; argument: CNc1cc(C)nc(Nc2cc3c(c(C4=CCNCC(O)C4)c2C)OCC3)n1 (single isomer, unassigned) [Compound 370]
Result block: < 100 nM

Query block: Return reported IC50; argument: CCN1CC=C(c2c(F)c(Nc3nc(C)cc(NC)n3)cc3c2OCC3)CCC1
Result block: < 100 nM

Query block: Return reported IC50; argument: CNc1cc(Nc2cc3c(c(C4=CCNCCC4)c2)OCC3)nc(C)c1F
Result block: < 100 nM

Query block: Return reported IC50; argument: CNc1cc(C)nc(Nc2cc3c(c(C4=CCNCCC4)c2F)OCCC3(F)F)n1
Result block: < 100 nM

Query block: Return reported IC50; argument: CNc1cc(C)nc(Nc2cc3c(c(C4CCCNCC4)c2)OCCO3)n1 (centres unmarked)
Result block: 100 to 500 nM

Query block: Return reported IC50; argument: CNc1cc(C)nc(Nc2cc3c(c(C4=CCNC(C)CC4)c2F)OCO3)n1 (single isomer, unassigned) [Compound 380]
Result block: 500 to 2000 nM

Query block: Return reported IC50; argument: CNc1cc(C)nc(Nc2cc3c(c(C4=CCNC(C(F)F)CC4)c2F)OCC3)n1 (single isomer, unassigned) [Compound 354-a]
Result block: > 2000 nM

Query block: Return reported IC50; argument: CNc1cc(C)nc(Nc2cc3c(c(C4=CCNCCC4)c2Cl)OCO3)n1
Result block: < 100 nM
